Biological target: human GLP-1 receptor (human, UniProt P43220 24-463)
Test: cell-based or functional assay
Non-standard residues stand in square brackets, D forms with d. No end group written: not given here. Aib = CC(C)(N)C(=O)O
Assign EC50, CreLuc assay, 100% hP to each entry below.
One number for each entry, in nM.

Illustrative cases are given below, each with its answer.
binder	EC50, CreLuc assay, 100% hP, nM
Y[Aib]EGTFTSDYSI[Aib]LEKQAQ[Aib]EFVQWLIKGGPSSGASLRHYYNWLTRQRY-NH2 (not fully specified (residue 28); also: TFA salt) [Compound 28]	6.51
YXEGTFTSDYSIXLEKQAQXAFVQWLIKGGPSYYVSLRHYYNWLTRQRY (Aib at 2, 13, 20; K28 side chain: C20DA-gGlu-gGlu-gGlu-gGlu-gGlu-gGlu-eLys; C-terminal NH2) [Compound 19]	10.2
YXEGTFTSDYSIXLEKQAQXEFVQWLIKGGPSSGASLRHYYNWLTRQRY (Aib at 2, 13, 20; K28 side chain: C20DA-gGlu-gGlu-gGlu-gGlu-gGlu-OEG-OEG; C-terminal NH2) [Compound 36]	7.78
YXEGTFTSDYSIXLEKQAQXAFVEWLIKGGPSSGVSXRHYYNWLTRQRY (Aib at 2, 13, 20, 37; K28 side chain: C20DA-gGlu-gGlu-gGlu-gGlu-gGlu-gGlu-eLys; C-terminal NH2) [Compound 38]	1.28

Continue with the next binder.
[ask] Fill in: EC50, CreLuc assay, 100% hP of YXEGTFTSDYSIXLEKQAQXAFVEWLIKGGPSSPESLRHYYNWLTRQRY (Aib at 2, 13, 20; K28 side chain: C20DA-gGlu-gGlu-gGlu-gGlu-gGlu-gGlu-eLys; C-terminal NH2) [Compound 73] is ___
[reply] 4.76
